The origin of these recorded values is paper PMC5814829.

target.desc: T1, ScPif1p D677T (Saccharomyces cerevisiae, UniProt P07271 237-780, D677T)
T1 sequence: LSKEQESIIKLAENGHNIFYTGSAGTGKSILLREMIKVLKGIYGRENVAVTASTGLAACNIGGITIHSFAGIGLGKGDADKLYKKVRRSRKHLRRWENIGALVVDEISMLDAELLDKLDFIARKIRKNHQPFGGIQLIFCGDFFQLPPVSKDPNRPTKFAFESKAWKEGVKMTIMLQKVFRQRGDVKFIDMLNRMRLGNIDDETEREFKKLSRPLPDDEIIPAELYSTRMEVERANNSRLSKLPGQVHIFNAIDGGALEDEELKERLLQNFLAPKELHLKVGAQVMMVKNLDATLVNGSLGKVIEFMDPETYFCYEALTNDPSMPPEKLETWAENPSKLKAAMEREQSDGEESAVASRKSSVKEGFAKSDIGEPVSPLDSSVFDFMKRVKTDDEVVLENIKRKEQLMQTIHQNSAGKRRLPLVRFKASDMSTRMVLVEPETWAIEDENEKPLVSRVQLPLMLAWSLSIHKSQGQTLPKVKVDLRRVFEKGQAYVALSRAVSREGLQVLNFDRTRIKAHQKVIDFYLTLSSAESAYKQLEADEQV
test.summary: fluorescence anisotropy
recorded.metric: Kd (nM)
Answers are plain numbers, in nM.

Q: Reported Kd for GTGTGTGTGGTG (ssDNA) [GR12] : what is it?
Ans: 10.5
